Target or system: T1, mouse ICOS-mFc (Chimerigen) (mouse, UniProt Q9WVS0 21-141, limits assumed)
T1 construct: also called mouse ICOS receptor; mouse ICOS Receptor; not shown: mouse Fc of the bought construct
T1 sequence: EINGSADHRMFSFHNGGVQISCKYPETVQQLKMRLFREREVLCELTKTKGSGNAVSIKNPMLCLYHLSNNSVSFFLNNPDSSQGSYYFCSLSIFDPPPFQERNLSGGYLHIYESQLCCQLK
Assay summary: HTRF neutralisation of Alexa 647 mouse B7-H2 binding to mouse ICOS-mFc; human IgG4.PE; mean, n = 3
Method: 5 μl of ICOS receptor (human ICOS-mFc, 20 nM, 5 nM final or mouse ICOS-mFc 4 nM, 1 nM final (Chimerigen)) was added to required wells. Plate was incubated for 1 hr at room temperature (RT). Finally, 5 μl of anti-mouse IgG donor mAb (Southern Biotech) labelled with europium cryptate (Cis Bio), 40 nM, 10 nM final was added to each well and the assay was left in the dark at RT to incubate for a further 2 hours. […] IC50 values were calculated by first transforming the data using equation X=Log(X). […]
Endpoint name: IC50 (nM)
Please respond with the number in nM and leave the unit unwritten.

Give IC50 for STIM001 human IgG4.PE (antibody, V domains shown, Human IgG4.PE (null-effector) format) VH: QVQVVQSGAEVKKPGASVKVSCKASGYTFSTFGITWVRQAPGQGLEWMGWISAYNGDTNYAQNLQGRVIMTTDTSTSTAYMELRSLRSDDTAVYYCARSSGHYYYYGMDVWGQGTTVTVSS VL: DIVMTQSPLSLPVTPGEPASISCRSSQSLLHSNEYNYLDWYLQKPGQSPQLLIFLGSNRASGVPDRFSGSGSGTDFTLKITRVEAEDVGIYYCMQSLQTPLTFGGGTKVEIK
4.7

Ref: patent US20180066058A1
